assay: in vitro; settings: Balb C, mouse, plasma
READOUT LABEL: remaining at 6 h, 10 µM (%)
Answers are plain numbers, in %.

// Ac-PSRLEEELRRRLTE-NH2 [SD14316] : remaining at 6 h, 10 µM value = 33.8

====

test: Plasma stability, mouse plasma; conditions: mouse plasma, 37° C., timepoint 3 h
Bridge positions count the residues as written; N and C are the ends. Square brackets hold non-standard residues; d marks the D form. Peptide text beside a SMILES is read from it.
For each record, write down the corresponding Tube 2 (compound concentration).
One number for each entry.

INSERT INTO results (compound, readout_label, result_value) VALUES
  ('CC(=O)N1CCC[C@H]1C(=O)N[C@@H](CO)C(=O)N[C@@H](CCCNC(=N)N)C(=O)N[C@@H](CC(C)C)C(=O)N[C@@H](CCC(=O)O)C(=O)N[C@H]1CSSC[C@H](C(=O)N[C@@H](CCCNC(=N)N)C(=O)N[C@@H](CCCNC(=N)N)C(=O)N[C@@H](CC(C)C)C(=O)N[C@H](C(=O)N[C@@H](CCC(=O)O)C(N)=O)[C@@H](C)O)NC(=O)[C@H](CC(C)C)NC(=O)[C@H](CCC(=O)O)NC1=O [SD15807] (Ac-PSRLECEL[dC]RRLTE-NH2; disulfide 6-9)', 'Tube 2 (compound concentration)', 1.323),
  ('CC(=O)N1CCC[C@H]1C(=O)N[C@@H](CO)C(=O)N[C@@H](CCCNC(=N)N)C(=O)N[C@@H](CC(C)C)C(=O)N[C@@H](CCC(=O)O)C(=O)N[C@H]1CCC(=O)NCCCC[C@H](C(=O)N[C@@H](CCCNC(=N)N)C(=O)N[C@@H](CC(C)C)C(=O)N[C@H](C(=O)N[C@@H](CCC(=O)O)C(N)=O)[C@@H](C)O)NC(=O)[C@H](CCCNC(=N)N)NC(=O)[C@H](CC(C)C)NC(=O)[C@H](CCC(=O)O)NC1=O [SD15808] (Ac-PSRLEEELR[dK]RLTE-NH2; lactam 6-10)', 'Tube 2 (compound concentration)', 2.316),
  ('CC(=O)N1CCC[C@H]1C(=O)N[C@@H](CO)C(=O)N[C@@H](CCCNC(=N)N)C(=O)N[C@@H](CC(C)C)C(=O)N[C@H]1CCC(=O)NCCCC[C@@H](C(=O)N[C@@H](CCCNC(=N)N)C(=O)N[C@@H](CCCNC(=N)N)C(=O)N[C@@H](CC(C)C)C(=O)N[C@H](C(=O)N[C@@H](CCC(=O)O)C(N)=O)[C@@H](C)O)NC(=O)[C@H](CC(C)C)NC(=O)[C@H](CCC(=O)O)NC(=O)[C@H](CCC(=O)O)NC1=O [SD15806] (Ac-PSRLEEELKRRLTE-NH2; lactam 5-9)', 'Tube 2 (compound concentration)', 2.501);

Read the next record carefully.
// Tube 2 (compound concentration) lookup, compound = CC(=O)N1CCC[C@H]1C(=O)N[C@@H](CO)C(=O)N[C@@H](CCCNC(=N)N)C(=O)N[C@@H](CC(C)C)C(=O)N[C@@H](CCC(=O)O)C(=O)N[C@H]1CCCCNC(=O)CC[C@@H](C(=O)N[C@@H](CCCNC(=N)N)C(=O)N[C@@H](CC(C)C)C(=O)N[C@H](C(=O)N[C@@H](CCC(=O)O)C(N)=O)[C@@H](C)O)NC(=O)[C@H](CCCNC(=N)N)NC(=O)[C@H](CC(C)C)NC(=O)[C@H](CCC(=O)O)NC1=O [SD15805] (Ac-PSRLEKELRERLTE-NH2; lactam 6-10) , result: 2.099
